Value source: ChEMBL document CHEMBL1240395

System: HCT-8
Experiment: Cytotoxicity against human HCT8 cells at 1.96 to 22.7 uM
Type: cell-based
Details: hct-8, 22.7 µM
reportedEndpoint: Activity

compoundStructure | reportedEndpoint | result
Cc1nc(NC(=O)c2ccccc2O)sc1Br | Activity | Non-toxic
Cc1cccc(C(=O)Nc2ncc(Cl)s2)c1O | Activity | Non-toxic
Cc1ccc(O)c(C(=O)Nc2ncc(Cl)s2)c1 | Activity | Non-toxic
CC(=O)Oc1c(C)cccc1C(=O)Nc1ncc(Br)s1 | Activity | Non-toxic

====

Test system: Cryptosporidium parvum
Test: Antiparasitic activity against Cryptosporidium parvum infected in human […] cells after 46 hrs by immunofluorescence method
Format: functional, organism-based
Conditions: htc8
reportedEndpoint: IC50

Reference set (5 entries):
compoundStructure | IC50
CCOC(=O)Cc1csc(NC(=O)c2ccccc2OC(C)=O)n1 | Not Active
CC(=O)Oc1c(C)cccc1C(=O)Nc1ncc([N+](=O)[O-])s1 | 1 µg/mL
CCCc1cnc(NC(=O)c2ccccc2O)s1 | Not Active
COc1ccccc1C(=O)Nc1ncc([N+](=O)[O-])s1 | Not Active
CC(=O)Oc1ccccc1C(=O)Nc1nncs1 | Not Active

Req: Report IC50 for `CCOC(=O)Cc1nnc(NC(=O)c2ccccc2OC(C)=O)s1` please.
Resp: Not Active

Req: Report IC50 for `O=C(Nc1nccs1)c1ccccc1O` please.
Resp: Not Active

Req: Report IC50 for `Cc1nc(NC(=O)c2ccccc2O)sc1[N+](=O)[O-]` please.
Resp: 1 µg/mL

Req: Report IC50 for `O=C(Nc1ncc(C2CCCCC2)s1)c1ccccc1O` please.
Resp: Not Active

Req: Report IC50 for `Cc1cccc(C(=O)Nc2ncc(Cl)s2)c1O` please.
Resp: 4.6 µg/mL

Req: Report IC50 for `Cc1cnc(NC(=O)c2ccccc2O)s1` please.
Resp: Not Active

Req: Report IC50 for `CSc1nnc(NC(=O)c2ccccc2OC(C)=O)s1` please.
Resp: 9.2 µg/mL

Req: Report IC50 for `CS(=O)(=O)c1cnc(NC(=O)c2ccccc2O)s1` please.
Resp: Not Active

====

System: Cryptosporidium parvum
Assay: Antiparasitic activity against Cryptosporidium parvum infected in human […] cells after 46 hrs by immunofluorescence method
Assay type: functional, organism-based
Conditions: htc8
reportedEndpoint: IC50

compoundStructure | result
COc1cccc(C(=O)Nc2ncc(Br)s2)c1OC(C)=O | Not Active
O=C(Nc1ncc(-c2ccccc2Cl)s1)c1ccccc1O | Not Active
CC(=O)Oc1ccccc1C(=O)Nc1ncc(S(C)(=O)=O)s1 | Not Active
Cc1ccc(C(=O)Nc2ncc(Br)s2)c(O)c1 | 9.3 µg/mL
